Data origin: PubChem BioAssay (Tox21)

method: qHTS assay to identify small molecule agonists of the AP-1 signaling pathway - cell viability counter screen (AID 1159525); further: nearly all actives have a fitted effect of over 55% in size
condition.parameters: ME-180 (cervical carcinoma) AP-1-bla cells viability, ATP luminescence, 5 h; series mostly up to 76.8 µM
Results filed as inconclusive are left out. Active and inactive are the calls of the source. The call rests on the fitted dose curve.
metric: viability change, negative = cytotoxic

Study these solved cases before continuing.
compound	viability change, negative = cytotoxic
C1CS1	inactive
C[Si](Cn1cncn1)(c1ccc(F)cc1)c1ccc(F)cc1	inactive
O=S(=O)(Cl)Cl	inactive
CC(Oc1cc(Cl)c(Cl)cc1Cl)C(=O)O (centres undefined)	inactive

# input compound: C=C(C)C(=O)OCCCCOC(=O)C(=C)C ; wanted: its viability change, negative = cytotoxic inactive

====

method: qHTS assay to identify small molecule antagonists of the androgen receptor (AR) signaling pathway - cell viability counter screen (AID 743033; further: nearly all actives have a fitted effect of over 45% in size)
condition.parameters: AR-bla HEK293 viability, CellTiter-Glo luminescence, 16 h; series mostly up to 58.5 µM
Description: National Center for Advancing Translational Sciences [NCATS] NIH Chemical Genomics Center [NCGC] U.S. Environmental Protection Agency [EPA] National Institutes of Environmental Health Sciences [NIEHS] National Toxicology Program [NTP] U.S. Food and Drug Administration [FDA] Androgen receptor (AR), a nuclear hormone receptor, plays a critical role in AR-dependent prostate cancer and other androgen related diseases. […]
Inconclusive results are not listed. Calls of active or inactive are those of the source. Calls come from the whole dose curve; as a rule, active = well fitted cell-killing curve with a large enough effect in the repeat runs; inconclusive = weak or mixed curves; inactive = no such curve, though single readings can be large or run the other way.
Classes to choose from: active, inactive

Hi team, can someone confirm the assay call for COc1ccc2c(c1OC)C(=O)O[C@H]2[C@@H]1c2cc3c(cc2CCN1C)OCO3 ? inactive

Hi team, can someone confirm the assay call for C1CCNCC1 ? inactive

Hi team, can someone confirm the assay call for CCCN(CCOc1c(Cl)cc(Cl)cc1Cl)C(=O)n1ccnc1 ? active

Hi team, can someone confirm the assay call for CCC[N+](CCC)(CCC)CCC ? inactive

Hi team, can someone confirm the assay call for CCN(C(C)=O)c1cccc(-c2ccnc3c(C#N)cnn23)c1 ? inactive

Hi team, can someone confirm the assay call for O=CC=O ? inactive

Hi team, can someone confirm the assay call for CC(C)c1ccc(OP(=O)(Oc2ccc(C(C)C)cc2)Oc2ccc(C(C)C)cc2)cc1 ? inactive

Hi team, can someone confirm the assay call for CCC(C)(C)O ? inactive

Hi team, can someone confirm the assay call for CCOc1cccc(C2(N3CCN(c4ccccc4)CC3)CCC(C)CC2)c1 (centres undefined) ? inactive

Hi team, can someone confirm the assay call for COC(=O)C1(O)c2ccccc2-c2ccccc21 ? inactive

Hi team, can someone confirm the assay call for CC(C)(C#N)C(C)(C)C#N ? inactive

Hi team, can someone confirm the assay call for O=C([O-])c1ccccn1.O=C([O-])c1ccccn1.O=C([O-])c1ccccn1.[Cr+3] ? inactive

Hi team, can someone confirm the assay call for Nc1cccc2ccccc12 ? inactive

Hi team, can someone confirm the assay call for C[N+]1(CCC(C(N)=O)(c2ccccc2)c2ccccc2)CCCCC1 ? inactive

Hi team, can someone confirm the assay call for CC[N+]1(C)CCCC(OC(=O)C(O)(c2ccccc2)c2ccccc2)C1 (centres undefined) ? inactive

Hi team, can someone confirm the assay call for CC(Oc1cccc(Cl)c1)C(=O)O (centres undefined) ? inactive

Hi team, can someone confirm the assay call for CC(C)CCON=O ? inactive

Hi team, can someone confirm the assay call for Clc1ccccc1 ? inactive

Hi team, can someone confirm the assay call for C1CS1 ? inactive

Hi team, can someone confirm the assay call for O=C(NC(=O)c1cc(F)c(F)cc1Cl)Nc1cc(F)ccc1N1CCC(C(=O)O)CC1 ? inactive

Hi team, can someone confirm the assay call for ClCc1ccccc1Cl ? inactive

Hi team, can someone confirm the assay call for Cc1ccc(N)c(C)c1 ? inactive

Hi team, can someone confirm the assay call for CCCCCCCCP(=O)(O)O ? inactive

Hi team, can someone confirm the assay call for CC(C)[C@@H](C(=O)O[C@@H](C#N)c1cccc(Oc2ccccc2)c1)c1ccc(Cl)cc1 ? inactive

Hi team, can someone confirm the assay call for O=C(O)C(F)(F)C(F)(F)C(F)(F)C(F)(F)C(F)(F)C(F)(F)C(F)(F)C(F)(F)F ? inactive

Hi team, can someone confirm the assay call for CN1C[C@H](C(=O)N[C@]2(C)O[C@@]3(O)[C@@H]4CCCN4C(=O)[C@H](Cc4ccccc4)N3C2=O)C=C2c3cccc4[nH]cc(c34)C[C@H]21 ? inactive

Hi team, can someone confirm the assay call for O=[N+]([O-])O[C@H]1CO[C@H]2[C@@H]1OC[C@H]2O[N+](=O)[O-] ? inactive

Hi team, can someone confirm the assay call for CCCCC(CC)CO[N+](=O)[O-] (centres undefined) ? inactive

Hi team, can someone confirm the assay call for Cc1ccccc1 ? inactive

Hi team, can someone confirm the assay call for FC(Cl)(Cl)C(F)(Cl)Cl ? inactive

Hi team, can someone confirm the assay call for Cc1nnc(-c2ccccc2)c(=O)n1N ? inactive

Hi team, can someone confirm the assay call for Cc1ncc(C[n+]2csc(CCO)c2C)c(N)n1 ? inactive

Hi team, can someone confirm the assay call for CN(C)N ? inactive

Hi team, can someone confirm the assay call for CCOP(=S)(OCC)Oc1ccc(S(C)=O)cc1 (centres undefined) ? inactive

Hi team, can someone confirm the assay call for CCOC(=O)NC(O)C(Cl)(Cl)Cl (centres undefined) ? inactive

Hi team, can someone confirm the assay call for CCC1(C2=NCCN2)Cc2ccccc2O1 (centres undefined) ? inactive

Hi team, can someone confirm the assay call for CCCN(CCC)C(=O)Cc1c(-c2ccc(Cl)cc2)nc2ccc(Cl)cn12 ? inactive

Hi team, can someone confirm the assay call for O=C(O)c1cc(Cl)ccc1Cl ? inactive

Hi team, can someone confirm the assay call for CCCBr ? inactive

Hi team, can someone confirm the assay call for C[N+]1(CCF)[C@@H]2CC[C@H]1CC(OC(=O)C(O)(c1ccccc1)c1ccccc1)C2 (some centres undefined) ? inactive

Hi team, can someone confirm the assay call for CC(Cc1ccccc1)NCc1ccccc1Cl (centres undefined) ? inactive

Hi team, can someone confirm the assay call for CC(O)CN1CCN(CC(=O)[O-])CCN(CC(=O)[O-])CCN(CC(=O)[O-])CC1.[Gd+3] (centres undefined) ? inactive

Hi team, can someone confirm the assay call for CCC(C)(C)c1ccc(O)c(C(C)(C)CC)c1 ? active

Hi team, can someone confirm the assay call for C[N+](C)(C)CCOC(=O)C(O)(c1ccccc1)c1ccccc1 ? inactive

Hi team, can someone confirm the assay call for Clc1ccc(Cl)c(Cl)c1 ? inactive

Hi team, can someone confirm the assay call for CC[N+]1(CCOC(=O)C(O)(c2ccccc2)c2ccccc2)CCCCC1 ? inactive

Hi team, can someone confirm the assay call for CC(C)(c1ccccc1)c1cc(-n2nc3ccccc3n2)c(O)c(C(C)(C)c2ccccc2)c1 ? inactive

Hi team, can someone confirm the assay call for c1ccc2c(c1)-c1cccc3cccc-2c13 ? inactive

Hi team, can someone confirm the assay call for CCCCCl ? inactive

Hi team, can someone confirm the assay call for OCCCl ? inactive

Hi team, can someone confirm the assay call for CC(C)(C)NCC(O)c1cc(Cl)c(N)c(C(F)(F)F)c1 (centres undefined) ? inactive

Hi team, can someone confirm the assay call for COCc1cnc(C2=NC(C)(C(C)C)C(=O)N2)c(C(=O)O)c1 (centres undefined) ? inactive

Hi team, can someone confirm the assay call for O=C1CC[C@@]2(O)[C@H]3Cc4ccc(O)c5c4[C@@]2(CCN3CC2CC2)[C@H]1O5 ? inactive

Hi team, can someone confirm the assay call for O=C(O)COc1cc(Cl)c(Cl)cc1Cl ? inactive
